Cited source for all entries: patent US20240116985A1

# SYSTEM TESTED: full-length beta-Catenin (Uniprot ID P35222) (Homo sapiens)
# Construct: 10 nM full-length beta-Catenin (Uniprot ID P35222)
# Sequence (P35222 1-781): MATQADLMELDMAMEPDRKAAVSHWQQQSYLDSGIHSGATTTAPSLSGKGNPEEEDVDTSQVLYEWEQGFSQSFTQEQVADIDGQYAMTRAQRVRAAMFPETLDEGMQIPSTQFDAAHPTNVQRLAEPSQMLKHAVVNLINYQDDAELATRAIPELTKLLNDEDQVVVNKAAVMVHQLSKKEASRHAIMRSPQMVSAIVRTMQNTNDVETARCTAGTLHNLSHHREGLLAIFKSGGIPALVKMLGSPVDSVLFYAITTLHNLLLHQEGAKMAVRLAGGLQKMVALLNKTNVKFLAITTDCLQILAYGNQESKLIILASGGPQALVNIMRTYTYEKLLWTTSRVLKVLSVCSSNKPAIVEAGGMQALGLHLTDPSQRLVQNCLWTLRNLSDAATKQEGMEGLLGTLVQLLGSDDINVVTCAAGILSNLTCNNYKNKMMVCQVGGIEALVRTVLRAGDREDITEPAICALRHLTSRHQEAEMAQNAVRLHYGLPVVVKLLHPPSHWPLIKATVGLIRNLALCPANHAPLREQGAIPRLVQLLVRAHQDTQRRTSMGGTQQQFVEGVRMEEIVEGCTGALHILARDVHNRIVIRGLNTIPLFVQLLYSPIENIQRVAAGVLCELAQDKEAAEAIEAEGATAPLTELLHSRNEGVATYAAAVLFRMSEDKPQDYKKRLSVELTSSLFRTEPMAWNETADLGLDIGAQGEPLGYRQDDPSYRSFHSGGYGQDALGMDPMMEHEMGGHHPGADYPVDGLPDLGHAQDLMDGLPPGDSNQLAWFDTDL
# PROTOCOL DETAILS: Fluorescence polarization IC50 (beta-catenin / 5FAM-TCF4 10-53 competition)
# Type: binding
# MEASUREMENT CONTEXT: fluorescence polarization; read-out: beta-Catenin FP IC50
QUANTITY KIND: pIC50
Recall that pIC50 is obtained by taking minus log10 of the concentration measured in molar.

Consider the reported pIC50 for these compounds:
- COMPOUND: "CC(=O)N1CCC[C@]12CC=CCCCC1(CCCC=CCCCOC(=O)N3CC[C@@](C(=O)N[C@@H](Cc4ccsc4)C(=O)N[C@@H](Cc4csc5ccccc45)C(=O)N[C@@H](CCC(N)=O)C(N)=O)(C3)NC(=O)[C@H](CC(N)=O)NC(=O)[C@H](Cc3ccccc3)NC(=O)[C@H](C)NC(=O)[C@H](C)NC(=O)[C@H](CC(=O)O)NC(=O)[C@H](CC(=O)O)NC1=O)NC(=O)[C@H](CC(C)(C)C)NC(=O)[C@H](CC(C)C)NC2=O (stereo partly drawn)"
  pIC50: 6.25
- COMPOUND: "CC(=O)N1CCC[C@]12CC=CCCCC1(CCCC=CCCCCC[C@@](C)(C(=O)N[C@@H](Cc3ccsc3)C(=O)N[C@@H](Cc3csc4ccccc34)C(=O)N[C@@H](CCC(N)=O)C(N)=O)NC(=O)[C@H](CC(N)=O)NC(=O)[C@H](Cc3ccccc3)NC(=O)[C@H](C)NC(=O)[C@H](C)NC(=O)[C@H](CC(=O)O)NC(=O)[C@H](CC(=O)O)NC1=O)NC(=O)[C@H](CC(C)(C)C)NC(=O)[C@H](CC(=O)O)NC2=O (stereo partly drawn)"
  pIC50: 6.21

Please turn your attention to the following entry.
// returns reported pIC50 for input CC(C)C[C@@H]1NC(=O)[C@H](Cc2ccccc2)NC(=O)[C@H](C)NC(=O)[C@H](C)NC(=O)[C@H](CN(CC(=O)O)CC(F)(F)F)NC(=O)[C@H](CC(=O)O)NC(=O)C2(CCCCCCCCOC(=O)N3CC[C@@](C(=O)N[C@@H](Cc4ccsc4)C(=O)N[C@@H](Cc4csc5ccccc45)C(=O)N[C@@H](CCC(N)=O)C(N)=O)(C3)NC1=O)CCCCCCOc1cccc(c1)CC(=O)N[C@@H](CC(=O)O)C(=O)N[C@@H](CC(C)(C)C)C(=O)N2 (stereo partly drawn)
6.11
